Source of measurements: paper PMC4254850

- TEST_NAME: Plasma pharmacokinetics, LC/MS/MS, non-compartmental analysis
- Assay type: in vivo, human
- SETTINGS: human, plasma, po, 56 mg, Cmax, 56 mg (BID), repeat dose; mean, n=3
QUANTITY_NAME: Cmax (ng/mL)

{"COMPOUND": "CS(=O)(=O)N1CCc2c(-c3cnc(N)nc3)nc(N3CCOCC3)nc21 [CH5132799]", "MEASURED_VALUE": 331}

====

- TEST_NAME: Plasma pharmacokinetics, LC/MS/MS, non-compartmental analysis
- Format: in vivo, human
- SETTINGS: human, plasma, po, 4 mg, t1/2, 4 mg (QD), single dose; mean, n=3
QUANTITY_NAME: half-life (h)

{"MOL": "CS(=O)(=O)N1CCc2c(-c3cnc(N)nc3)nc(N3CCOCC3)nc21", "QUANTITY_NAME": "half-life", "MEASURED_VALUE": 8.3}

====

- TEST_NAME: Plasma pharmacokinetics, LC/MS/MS, non-compartmental analysis
- Format: in vivo, human
- SETTINGS: human, plasma, po, 56 mg, t1/2, 56 mg (BID), single dose; mean, n=5

{"COMPOUND": "CS(=O)(=O)N1CCc2c(-c3cnc(N)nc3)nc(N3CCOCC3)nc21 [CH5132799]", "half-life, h": 16.3}

====

- TEST_NAME: Plasma pharmacokinetics, LC/MS/MS, non-compartmental analysis
- Format: in vivo, human
- SETTINGS: human, plasma, po, 56 mg, Cmax, 56 mg (BID), single dose; mean, n=5

{"MOLECULE": "CS(=O)(=O)N1CCc2c(-c3cnc(N)nc3)nc(N3CCOCC3)nc21 [CH5132799]", "UNIT_OF_MEASURE": "ng/mL", "Cmax": 428}

====

- TEST_NAME: Plasma pharmacokinetics, LC/MS/MS, non-compartmental analysis
- Format: in vivo, human
- SETTINGS: human, plasma, po, 4 mg, AUClast, 4 mg (QD), single dose; mean, n=3; AUClast = AUC0-72h

{"MOL": "CS(=O)(=O)N1CCc2c(-c3cnc(N)nc3)nc(N3CCOCC3)nc21", "AUC(0-t), ng·h/mL": 112}

====

- TEST_NAME: Plasma pharmacokinetics, LC/MS/MS, non-compartmental analysis
- Type: in vivo, human
- SETTINGS: human, plasma, po, 96 mg, Cmax, 96 mg (QD), repeat dose; mean, n=3
QUANTITY_NAME: Cmax (ng/mL)

{"COMPOUND": "CS(=O)(=O)N1CCc2c(-c3cnc(N)nc3)nc(N3CCOCC3)nc21 [CH5132799]", "MEASURED_VALUE": 103}

====

- TEST_NAME: Plasma pharmacokinetics, LC/MS/MS, non-compartmental analysis
- Type: in vivo, human
- SETTINGS: human, plasma, po, 16 mg, Cmax, 16 mg (QD), single dose; n=1
QUANTITY_NAME: Cmax (ng/mL)

{"MOL": "CS(=O)(=O)N1CCc2c(-c3cnc(N)nc3)nc(N3CCOCC3)nc21", "MEASURED_VALUE": 113}

====

- TEST_NAME: Plasma pharmacokinetics, LC/MS/MS, non-compartmental analysis
- Type: in vivo, human
- SETTINGS: human, plasma, po, 16 mg, t1/2, 16 mg (QD), single dose; n=1

{"MOL": "CS(=O)(=O)N1CCc2c(-c3cnc(N)nc3)nc(N3CCOCC3)nc21", "half-life": "13.7 h"}

====

- TEST_NAME: Plasma pharmacokinetics, LC/MS/MS, non-compartmental analysis
- Assay type: in vivo, human
- SETTINGS: human, plasma, po, 8 mg, AUC0-24h, 8 mg (QD), repeat dose; mean, n=2
QUANTITY_NAME: AUC(0-t) (ng·h/mL)

{"MOL": "CS(=O)(=O)N1CCc2c(-c3cnc(N)nc3)nc(N3CCOCC3)nc21", "MEASURED_VALUE": 159}

====

- TEST_NAME: Plasma pharmacokinetics, LC/MS/MS, non-compartmental analysis
- Assay type: in vivo, human
- SETTINGS: human, plasma, po, 16 mg, AUC0-24h, 16 mg (QD), repeat dose; mean, n=2

{"MOL": "CS(=O)(=O)N1CCc2c(-c3cnc(N)nc3)nc(N3CCOCC3)nc21", "AUC(0-t) / ng·h/mL": 621}

====

- TEST_NAME: Plasma pharmacokinetics, LC/MS/MS, non-compartmental analysis
- Assay type: in vivo, human
- SETTINGS: human, plasma, po, 48 mg, AUClast, 48 mg (BID) = MTD, single dose; mean, n=4; AUClast = AUC0-72h

{"MOL": "CS(=O)(=O)N1CCc2c(-c3cnc(N)nc3)nc(N3CCOCC3)nc21", "AUC(0-t) [ng·h/mL]": 1270}

====

- TEST_NAME: Plasma pharmacokinetics, LC/MS/MS, non-compartmental analysis
- Type: in vivo, human
- SETTINGS: human, plasma, po, 16 mg, AUClast, 16 mg (QD), single dose; n=1; AUClast = AUC0-72h

{"COMPOUND": "CS(=O)(=O)N1CCc2c(-c3cnc(N)nc3)nc(N3CCOCC3)nc21 [CH5132799]", "AUC(0-t)": "883 ng·h/mL"}

====

- TEST_NAME: Plasma pharmacokinetics, LC/MS/MS, non-compartmental analysis
- Format: in vivo, human
- SETTINGS: human, plasma, po, 4 mg, Cmax, 4 mg (QD), single dose; mean, n=3
QUANTITY_NAME: Cmax (ng/mL)

{"MOL": "CS(=O)(=O)N1CCc2c(-c3cnc(N)nc3)nc(N3CCOCC3)nc21", "MEASURED_VALUE": 17.2}

====

- TEST_NAME: Plasma pharmacokinetics, LC/MS/MS, non-compartmental analysis
- Type: in vivo, human
- SETTINGS: human, plasma, po, 72 mg, AUC0-24h, 72 mg (BID), repeat dose; n=1; calculated based on data from 0 to 12 hours (AUC0-12h)

{"COMPOUND": "CS(=O)(=O)N1CCc2c(-c3cnc(N)nc3)nc(N3CCOCC3)nc21 [CH5132799]", "UNIT_OF_MEASURE": "ng·h/mL", "AUC(0-t)": 5580}

====

- TEST_NAME: Plasma pharmacokinetics, LC/MS/MS, non-compartmental analysis
- Format: in vivo, human
- SETTINGS: human, plasma, po, 72 mg, Cmax, 72 mg (BID), single dose; mean, n=3

{"MOL": "CS(=O)(=O)N1CCc2c(-c3cnc(N)nc3)nc(N3CCOCC3)nc21", "Cmax [ng/mL]": 265}

====

- TEST_NAME: Plasma pharmacokinetics, LC/MS/MS, non-compartmental analysis
- Type: in vivo, human
- SETTINGS: human, plasma, po, 56 mg, Cmax, 56 mg (QD), repeat dose; mean, n=3
QUANTITY_NAME: Cmax

{"MOLECULE": "CS(=O)(=O)N1CCc2c(-c3cnc(N)nc3)nc(N3CCOCC3)nc21 [CH5132799]", "MEASURED_VALUE": "184 ng/mL"}

====

- TEST_NAME: Plasma pharmacokinetics, LC/MS/MS, non-compartmental analysis
- Assay type: in vivo, human
- SETTINGS: human, plasma, po, 56 mg, AUClast, 56 mg (BID), single dose; mean, n=5; AUClast = AUC0-72h

{"MOL": "CS(=O)(=O)N1CCc2c(-c3cnc(N)nc3)nc(N3CCOCC3)nc21", "AUC(0-t), ng·h/mL": 3030}

====

- TEST_NAME: Plasma pharmacokinetics, LC/MS/MS, non-compartmental analysis
- Type: in vivo, human
- SETTINGS: human, plasma, po, 48 mg, AUC0-24h, 48 mg (BID) = MTD, repeat dose (steady state); mean, n=5; calculated based on data from 0 to 12 hours (AUC0-12h)
QUANTITY_NAME: AUC(0-t) (ng·h/mL)

{"COMPOUND": "CS(=O)(=O)N1CCc2c(-c3cnc(N)nc3)nc(N3CCOCC3)nc21 [CH5132799]", "UNIT_OF_MEASURE": "ng·h/mL", "MEASURED_VALUE": 1550}

====

- TEST_NAME: Plasma pharmacokinetics, LC/MS/MS, non-compartmental analysis
- Format: in vivo, human
- SETTINGS: human, plasma, po, 2 mg, t1/2, 2mg (QD), single dose; mean, n=3
QUANTITY_NAME: half-life (h)

{"MOL": "CS(=O)(=O)N1CCc2c(-c3cnc(N)nc3)nc(N3CCOCC3)nc21", "QUANTITY_NAME": "half-life", "MEASURED_VALUE": 7.52}

====

- TEST_NAME: Plasma pharmacokinetics, LC/MS/MS, non-compartmental analysis
- Type: in vivo, human
- SETTINGS: human, plasma, po, 2 mg, Cmax, 2mg (QD), single dose; mean, n=3

{"MOLECULE": "CS(=O)(=O)N1CCc2c(-c3cnc(N)nc3)nc(N3CCOCC3)nc21 [CH5132799]", "Cmax [ng/mL]": 10}
